- Target System: HLA-B*51:01
- Test: IEDB peptide-MHC binding, purified MHC/competitive/fluorescence; filed as Kd, often an IC50 or EC50 that approximates it; bounds were set here for any values at or beyond the usual limits of such assays
- Measurement Context: source organism: Bacillus anthracis str. A0488
Observation Type: Kd

## Task Would you mind telling me what Kd value was observed for FVMPIFEQI ?
## Result ≥ 20 µM

---

- Target System: HLA-B*53:01
- Test: IEDB peptide-MHC binding, purified MHC/competitive/radioactivity; filed as Kd, often an IC50 or EC50 that approximates it; bounds were set here for any values at or beyond the usual limits of such assays
- Measurement Context: source organism: SARS coronavirus Tor2
Observation Type: Kd

The examples below pair each entry with its known result.
# Sequence Code, Value Measured
measured = [
    ("GPQSNQRSA", "≥ 78.2 µM"),
    ("LPFHRWHTMV", "18.7 µM"),
]

Proceeding to the next sequence to report its Kd.
## Task Which Kd value belongs to VPMEKLKAL ?
## Result ≥ 39.4 µM

// data source = the Immune Epitope Database (IEDB)
